test: yeast display, Sf9 membrane polyspecificity reagent, FACS + sequencing; frameworks hold sequencing errors
assay metric: polyreactivity (PSR sort gate)

INSERT INTO measurements (polymer_sequence, result) VALUES
  ('QVQLVESGGGLDQAGGSLRLSCAASGFIFYDYDMGWYRQAPGKERELVAAISDGGSTNYADSVKGRFTISRDNAKNTVYFQRNSLKPEDTAVYYCAKDGFVYYDYFQYIEYDYWGQGTQVTVSS', 'low polyreactivity'),
  ('QVQLVESGGGLVQAGGSLRLSCAASGSIFYSYGMGWYRQAPGKERELVAAITSSGGGTYYADSVKGRFTISRDNAKNTVYLQMNSLKPEDTAVYYCAADDRNYNYYPTFYYWGQGTQVTVSS', 'low polyreactivity'),
  ('QVQLVESGGGLVQAGGSLRLSCAASGFTFYYYTMGWYRQAPGKQRELVAAITWRGGSTNYADSVKGRFTISRDNAKNTVFLQMNSLKPEDTAVYYCAAVSYWFWPGMDYWGQGTQVTVSS', 'low polyreactivity'),
  ('QVQLVESGGGLVQAGGSLRLSCAASGNTFYYYAMGWYRQAPGKERELVAAIRRSGGTTYYADSVKGRFTISRDNAKNTVYLQMNSLKPEDTAVYYCAARVYRSYANVEGNYWGQGTQVTVSS', 'high polyreactivity'),
  ('QVQLVESGGGLVQAGGSLRLSCAASGRTFGRNAMGWYRQAPGKEMELVAAISWTGGNTYYADSVKGRFTISRDNAKNTVYLQMNSLKPEDTAVYYCAARGRYVTPQPSYDYWGQGTQVTVSS', 'high polyreactivity'),
  ('QVQLVESGGGLVQAGGSLRLSCAASGSIFTVYAMGWYRQAPGKERELVAAITRNGGRTYYADSVKGRFTISRDNAKNTVYLQMNSLKPEDTAVYYCAAPGLYSRLDYWGQGTQVTVSS', 'high polyreactivity'),
  ('QVQLVESGGGLVQAGGSLRLSCAASGSTFASYAMGWYRQAPGKETELVASITRRGCSTDYADSVKGRFTISRDNAKNTVDFPMNLLKPEDTAVYYCATYSYPERTGGHRTHYYWGQGTQVTVSS', 'high polyreactivity'),
  ('QVQLVESGGGLVQAGGSLRLSCAASGRTFYSNAMGWYRQAPGKERELVAGINIGGGSTYYADSVKGRFTISRDNAKNTVYLQMNSLKPEDTAVYYCAARRWGAYRHGYWGQGTQVTVSS', 'high polyreactivity'),
  ('QVHLVESGGGLVQAGGSLRLSCAASGFIFSFYGMGWSRHAPAKESELVAAISSGGTTYYADSVKGRFTISRDNAKNSVYLQMNSLKPEDTAVYYCAGRVARRTTSVFSYFSRYNYWGQGTQVSVSS', 'high polyreactivity'),
  ('QVQLVESGGGLVQAGGSLRLSCAASGFIFYRNTMGWYRPAPGKEREFVAAIRWRGGSTYYADSVKGRFTISRDNAKNTVYVQMNSLKPEDTAGYYCAADTRPGYSGFEYWGQGTQVTVSS', 'high polyreactivity'),
  ('QVQLVESGAGLVQAGGSLRLSCAASGSIFLYNDMGWYRQAPGKERELVAAITSDGSTNYADSVKGRFTISRDNAMNTVYLQMNSLKPEDNAVYYCAADALWFYLNWYYGGTAYGYWGQCTQVTVSS', 'low polyreactivity'),
  ('QVQLVESGGGLVQAGGSLRLSCAASGLTFKQYALGWYRQAPGKERELVAAITVSGGDTYYADSVKGRFTISRDNAKNSVYLQMNSLKPVDTAVYYCAADHFFWGYDYWGQGTQVTVSS', 'high polyreactivity'),
  ('QVQLVESGGGLVQAGGSLRLSCAASGSIFKIYAMGWYRQAPGKERELVAAITINGGSTYYADSVKGRFTISRDNAKNTVYLLMNSLKPEDTAVYYCAADFFHRAGWYFAYGHWGQGTQVTVSS', 'low polyreactivity'),
  ('QVQLVESGGGLVQAGGSLRLSCAASGTTFVWYAMGWYRQAPGKERELVAAISLSGGSTYYADSVKGRFTISRDNAKKTVYLQMNSLKPEDTAVYYCAAETYAYLFHTYDYWGQGSQVTVSS', 'low polyreactivity'),
  ('QVQLVESGGGLVQAGGSLRLSCAASGSIFYYNAMGWYRQAPGKERELVAAISWGDGITYYADSVKGRFTISRDNAKNTVYLQMNSLKPEDTAVYYCAVDYYYLAFEYWGQGTQVTVSS', 'high polyreactivity'),
  ('QVQLVESGGGLVQAGGSLRLSCAASGSTFPHNAMGWYRPAPGKERELVAAISVGGGSTHYADSVKGRFTISRDNAKNTVYLQMNSLKPEDTAVYYCAKDYAYQYSFVTYDYWGQGTQVTVSS', 'low polyreactivity'),
  ('QVQLVESGGGLVQAGGSLRLSCAASGSTLYTYAMGWYRPAPGKERELVAAIRLSGGRTYYADSVKGRFTISRDNAKNTVYLQMNSLKPEDTAVYYCAVDWSYSRYDYWGQGTQVTVSS', 'high polyreactivity'),
  ('QVQLVESGGGLVQAGGSLRLSCAASGRTLAHYTMGWYRQAPGKERELVAAITFSGGRTYYAHSVKGRFTISRDNAKNTVYLQMNSLKPEDTAVYYCAAPGRCYYRGDDYWGQGTQVTVSS', 'low polyreactivity'),
  ('QVQLVESGGGLVQAGGSLRLSCAASGFTFVYYAMGWYRQEPGKERELVAAISRSGGSTYYADSVKGRFTISRDNAKNTVYLQMNSLKPEDTEVYYCAAVTYANYYYDAYYYWGQGTQVTVSS', 'high polyreactivity'),
  ('QDQLVESGGGLVQAGGSLRLSCAASGRTFTTNDMGWYRQAPGKEWELVAGISWSGGSTFYADSVKGRFTISRDNAKNTVYLQMNSLKPEDTAVYSCATSARSYQSAYGHYTWYDYWGQGTQVTVSS', 'low polyreactivity'),
  ('QVQLVESGGGLVQAGGSLRLSCAASGFIFTWYAMGWYRQAPGKEREFVAGISRSGGRTYYADSLKGRFTISRDNAKNTVYLQMNSQKPEDTAVYDCNAVLVGYRPYREFDHWGQGTQVTVSS', 'high polyreactivity');

The measured values listed here are drawn from the nanobody polyreactivity screen of Harvey et al. (2022).
